This collection of values is drawn from patent US20200270309A1.

assay: Half-lives and pharmacokinetic parameters of polypeptides vs HM-1; conditions: in vivo
Peptide text beside a SMILES is read from it. * marks the point of attachment. Mal(CH2CH2O)6CH2CH2CO = O=C1C=CC(=O)N1CCOCCOCCOCCOCCOCCOCCC(=O)*; X64 = O=C1C=CC(=O)N1c1cccc(CCCCCCCCCC(=O)*)c1; X54 = O=C1C=CC(=O)N1c1cccc(CCCCCCC(=O)*)c1; X35 = O=C1C=CC(=O)N1CCOCCOCCOCCOCC(=O)*; X16 = O=C1C=CC(=O)N1CCOCCOCCCCCCC(=O)*; X75 = O=C1C=CC(=O)N1c1cccc(CC(=O)*)c1
measurement kind: clearance (L/h/kg)
One number for each entry, in L/h/kg.

{"columns": ["compound", "clearance (L/h/kg)"],
 "data": [
  ["C[C@H](NC(=O)CNC(=O)[C@H](CCCNC(=N)N)NC(=O)CCCCCCCCCc1cccc(N2C(=O)C=CC2=O)c1)C(=O)N[C@@H](CC(=O)O)C(=O)N[C@@H](CCCNC(=N)N)C(=O)N[C@@H](C)C(=O)NCC(=O)NCC(=O)NCC(=O)NCC(=O)N[C@@H](CCCNC(=N)N)C(=O)NCC(=O)N[C@@H](CC(=O)O)C(=O)O [X33] (X64-RGADRAGGGGRGD-OH)", 0.0294],
  ["C[C@H](NC(=O)CNC(=O)[C@H](CCCNC(=N)N)NC(=O)Cc1cccc(N2C(=O)C=CC2=O)c1)C(=O)N[C@@H](CC(=O)O)C(=O)N[C@@H](CCCNC(=N)N)C(=O)N[C@@H](C)C(=O)NCC(=O)NCC(=O)NCC(=O)NCC(=O)N[C@@H](CCCNC(=N)N)C(=O)NCC(=O)N[C@@H](CC(=O)O)C(=O)O [X25] (X75-RGADRAGGGGRGD-OH)", 0.0406],
  ["C[C@H](NC(=O)CNC(=O)[C@H](CCCNC(=N)N)NC(=O)CCCCCCc1cccc(N2C(=O)C=CC2=O)c1)C(=O)N[C@@H](CC(=O)O)C(=O)N[C@@H](CCCNC(=N)N)C(=O)N[C@@H](C)C(=O)NCC(=O)NCC(=O)NCC(=O)NCC(=O)N[C@@H](CCCNC(=N)N)C(=O)NCC(=O)N[C@@H](CC(=O)O)C(=O)O [X30] (X54-RGADRAGGGGRGD-OH)", 0.0353],
  ["C[C@H](NC(=O)CNC(=O)[C@H](CCCNC(=N)N)NC(=O)COCCOCCOCCOCCN1C(=O)C=CC1=O)C(=O)N[C@@H](CC(=O)O)C(=O)N[C@@H](CCCNC(=N)N)C(=O)N[C@@H](C)C(=O)NCC(=O)NCC(=O)NCC(=O)NCC(=O)N[C@@H](CCCNC(=N)N)C(=O)NCC(=O)N[C@@H](CC(=O)O)C(=O)O [X70] (X35-RGADRAGGGGRGD-OH)", 0.0357]
]}

Please state clearance for every compound in the list that follows.
1. C[C@H](NC(=O)CNC(=O)[C@H](CCCNC(=N)N)NC(=O)CCOCCOCCOCCOCCOCCOCCN1C(=O)C=CC1=O)C(=O)N[C@@H](CC(=O)O)C(=O)N[C@@H](CCCNC(=N)N)C(=O)N[C@@H](C)C(=O)NCC(=O)NCC(=O)NCC(=O)NCC(=O)N[C@@H](CCCNC(=N)N)C(=O)NCC(=O)N[C@@H](CC(=O)O)C(=O)O [X85] ({Mal(CH2CH2O)6CH2CH2CO}-RGADRAGGGGRGD-OH)
2. C[C@H](NC(=O)CNC(=O)[C@H](CCCNC(=N)N)NC(=O)CCCCCCOCCOCCN1C(=O)C=CC1=O)C(=O)N[C@@H](CC(=O)O)C(=O)N[C@@H](CCCNC(=N)N)C(=O)N[C@@H](C)C(=O)NCC(=O)NCC(=O)NCC(=O)NCC(=O)N[C@@H](CCCNC(=N)N)C(=O)NCC(=O)N[C@@H](CC(=O)O)C(=O)O [X61] (X16-RGADRAGGGGRGD-OH)

[0.0303, 0.0391]
